Where do these numbers come from? They come from patent US20080146559A1.

Observed pKi for human H3R (Homo sapiens, UniProt Q9Y5N1), reported per entry below.
pKi is defined as minus the log10 of a concentration measured in mol/L.

compound	pKi
CC(C)(C)CC(=O)N1CCc2cc(OCCCN3CCCC3)sc2C1 [Example 20]	7.39

Next compound, please.
Entry O=S(=O)(c1ccccc1)N1CCc2cc(OCCCN3CCCC3)sc2C1 [Example 32] , tested on human H3R (Homo sapiens, UniProt Q9Y5N1), has a reported pKi of 7.47
